biological target: human TAS2R4 (Homo sapiens, UniProt Q9NYW5); construct: expressed in transfected cells; host or cells: HEK293T-Gα16gust44; assay: Calcium imaging assay (FLIPR), HEK293T-Gα16gust44 cells transfected with human TAS2R4; type: cell-based; settings: Time (s) 203.547; further: test concentration or dose not given here
Sequence (Q9NYW5 whole entry): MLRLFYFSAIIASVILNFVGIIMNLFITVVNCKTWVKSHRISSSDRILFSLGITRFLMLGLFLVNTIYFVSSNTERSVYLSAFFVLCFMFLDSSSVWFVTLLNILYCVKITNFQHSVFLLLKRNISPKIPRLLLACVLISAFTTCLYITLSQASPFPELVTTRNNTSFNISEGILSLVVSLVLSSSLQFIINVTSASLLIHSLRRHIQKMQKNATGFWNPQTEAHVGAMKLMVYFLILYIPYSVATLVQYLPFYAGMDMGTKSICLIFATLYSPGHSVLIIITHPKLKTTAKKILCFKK
OBSERVATION_TYPE: RLU, fluorescence trace (RLU)
A number alone suffices; assume RLU.

>>> observed_measurement("C[C@H](CCC(=O)O)[C@H]1CC[C@H]2[C@@H]3[C@@H](O)C[C@@H]4C[C@H](O)CC[C@]4(C)[C@H]3CC[C@]12C")
152.046
>>> observed_measurement("C[C@H](CCC(=O)NCCS(=O)(=O)O)[C@H]1CC[C@H]2[C@@H]3CC[C@@H]4C[C@H](O)CC[C@]4(C)[C@H]3CC[C@]12C")
133.472

Prompt: Would you kindly share the measured RLU, fluorescence trace for C[C@H](CCC(=O)O)[C@H]1CC[C@H]2[C@@H]3CC[C@@H]4C[C@H](O)CC[C@]4(C)[C@H]3C[C@H](O)[C@]12C ?
Completion: 345.855

The measurements presented in this section are drawn from paper PMC10247784.
